experiment: Cytotoxicity assay (AlamarBlue); format: cell-based, Human; conditions: human, A549 cells
I'd appreciate it if you could supply CC50 at 48 h values for the items below.
All answers are understood in µM, so give the number only.

Can you share its CC50 at 48 h? I mean this compound: `C=C(C)[C@H]1Cc2c(ccc3c2O[C@@H]2COc4cc(OC)c(OC)cc4[C@@H]2C3=O)O1`
0.6

Lookup COc1cc2c(cc1OC)[C@]1(O)C(=O)c3ccc4c(c3O[C@@H]1CO2)C=CC(C)(C)O4 [Tephrosin, hydroxydeguelin]
37.7
